- tgt: recombinant rat brain FTase (Rattus norvegicus, UniProt Q02293+Q04631)
- Construct: 6xHis (N)
- assay_overview: Inhibition of FTase-catalyzed transfer of [^3 H]farnesyl from [^3 H]FPP to H-Ras
- condition: 0.6 μM [^3 H]FPP, 5 μM H-Ras, 37° C., 15 min
result_type: pIC50
# reply with the number alone; pIC50 is -log10 of concentration in mol/L

QUERY: Please supply the value of reported pIC50 for the item C/C(=C\COP(=O)(O)OP(=O)(O)O)CC/C=C(\C)CNc1ccccc1 [AGPP]
RESULT: 6.22

---

- tgt: squalene synthase (Bos taurus, UniProt Q32KR6)
- Sequence (Q32KR6 1-417): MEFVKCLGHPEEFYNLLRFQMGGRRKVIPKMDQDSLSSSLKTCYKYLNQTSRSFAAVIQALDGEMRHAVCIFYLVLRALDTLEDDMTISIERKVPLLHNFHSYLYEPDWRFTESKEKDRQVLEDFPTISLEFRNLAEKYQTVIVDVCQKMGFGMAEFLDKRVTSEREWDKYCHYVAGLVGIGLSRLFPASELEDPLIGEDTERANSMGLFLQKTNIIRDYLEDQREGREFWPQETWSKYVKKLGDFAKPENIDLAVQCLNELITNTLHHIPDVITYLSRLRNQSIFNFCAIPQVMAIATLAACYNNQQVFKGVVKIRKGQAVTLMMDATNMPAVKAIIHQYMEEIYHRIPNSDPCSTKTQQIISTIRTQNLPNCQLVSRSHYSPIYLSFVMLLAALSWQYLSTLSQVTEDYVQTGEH
result_type: IC50 (µM)
Give the value in µM but do not write µM after it.

QUERY: Send back squalene synthase (Bos taurus, UniProt Q32KR6) IC50 of "C/C(=C\COP(=O)(O)OP(=O)(O)O)CC/C=C(\C)CNc1ccccc1" only.
RESULT: 1000
